Source: patent US9556160B2

- assay-target: rat VAP-1 enzyme (SSAO) (Rattus norvegicus (Rat), UniProt O08590)
- Sequence (O08590 whole entry): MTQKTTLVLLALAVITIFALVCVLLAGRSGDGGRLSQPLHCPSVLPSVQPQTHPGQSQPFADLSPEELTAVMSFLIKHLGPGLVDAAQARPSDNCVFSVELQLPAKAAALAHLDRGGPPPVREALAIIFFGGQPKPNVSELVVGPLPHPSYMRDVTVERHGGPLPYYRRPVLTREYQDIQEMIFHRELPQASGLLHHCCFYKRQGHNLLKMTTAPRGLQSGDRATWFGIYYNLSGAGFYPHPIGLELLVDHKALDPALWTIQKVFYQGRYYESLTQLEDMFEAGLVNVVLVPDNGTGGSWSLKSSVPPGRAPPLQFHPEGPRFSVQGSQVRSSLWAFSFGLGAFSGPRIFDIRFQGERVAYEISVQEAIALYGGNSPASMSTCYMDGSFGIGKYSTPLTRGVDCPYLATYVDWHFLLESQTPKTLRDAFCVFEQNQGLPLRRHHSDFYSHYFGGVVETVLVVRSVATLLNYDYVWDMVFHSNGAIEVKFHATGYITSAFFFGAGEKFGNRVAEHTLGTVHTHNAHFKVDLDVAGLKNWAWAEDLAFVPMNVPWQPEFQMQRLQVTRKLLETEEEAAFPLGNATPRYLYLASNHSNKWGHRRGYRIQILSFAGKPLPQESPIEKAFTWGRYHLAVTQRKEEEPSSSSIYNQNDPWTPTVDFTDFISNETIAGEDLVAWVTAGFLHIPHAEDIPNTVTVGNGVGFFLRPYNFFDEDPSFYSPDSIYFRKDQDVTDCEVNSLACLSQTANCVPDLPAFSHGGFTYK
- assay-details: Inhibitory effect on rat VAP-1 enzyme (SSAO) activity, radiochemistry-enzymatic assay with 14C-benzylamine
- Type: biochemical
- measurement-context: CHO-expressed rat VAP-1, 14C-benzylamine 1×10^−5 mol/L
Counter-ions that a name gives are not always drawn.
endpoint-name: pIC50
For clarity, pIC50 is expressed as the negative log10 of concentration in mol/L.

These solved cases illustrate the format of a correct answer.
{"compound": "COCC(=O)N1CCC(C2CN(c3cccc(COC(=O)NC(=N)N)c3F)C2)CC1", "pIC50": 8.85}
{"compound": "CCS(=O)(=O)N1CCN(c2cccc(COC(=O)NC(=N)N)c2F)CC1", "pIC50": 8.68}
{"compound": "Cl.N=C(N)NC(=O)OCc1cccc(-c2cnc(N3CCOCC3)nc2)c1F", "pIC50": 8.41}
{"compound": "N=C(N)NC(=O)OCc1cccc(N2CCN(c3cccnc3)CC2)c1F", "pIC50": 9.01}
{"compound": "COCCOc1cc(N2CCN(c3cccc(COC(=O)NC(=N)N)c3F)CC2)ccn1", "pIC50": 8.60}
{"compound": "N=C(N)NC(=O)OCc1cccc(-c2cnc(OCC3CCN(C(=O)c4cccnc4)CC3)nc2)c1F", "pIC50": 8.72}
{"compound": "CC(=O)N1CCC(OC2CCN(c3cccc(COC(=O)NC(=N)N)c3F)CC2)CC1", "pIC50": 9.00}

stdin: # get_value(readout= pIC50, system= rat VAP-1 enzyme (SSAO) (Rattus norvegicus (Rat), UniProt O08590)) for COC1CN(c2ncc(N3CCN(c4cccc(COC(=O)NC(=N)N)c4F)CC3)cn2)C1 [Example 316, trihydrochloride]
stdout: 9.05

* * *

Assay system rat VAP-1 enzyme (SSAO) (Rattus norvegicus (Rat), UniProt O08590); read-out recorded as pIC50.
For clarity, pIC50 is expressed as the negative log10 of concentration in mol/L.

These solved cases illustrate the format of a correct answer.
{"substance-smiles": "N=C(N)NC(=O)OCc1cccc(N2CCC(c3ccncc3)CC2)c1F", "assay-target": "rat VAP-1 enzyme (SSAO) (Rattus norvegicus (Rat), UniProt O08590)", "pIC50": 8.77}
{"substance-smiles": "CC(=O)N1CCC(COc2ncc(-c3cccc(COC(=O)NC(=N)N)c3F)cn2)CC1", "assay-target": "rat VAP-1 enzyme (SSAO) (Rattus norvegicus (Rat), UniProt O08590)", "pIC50": 8.66}
{"substance-smiles": "CC(=O)N1CCC(COc2ncc(-c3cccc(CNC(=O)NC(=N)N)c3F)cn2)CC1", "assay-target": "rat VAP-1 enzyme (SSAO) (Rattus norvegicus (Rat), UniProt O08590)", "pIC50": 8.59}

stdin: # get_value(readout= pIC50, system= rat VAP-1 enzyme (SSAO) (Rattus norvegicus (Rat), UniProt O08590)) for N=C(N)NC(=O)OCc1cccc(N2CC(C3CCN(C(=O)C4CC4)CC3)C2)c1F
stdout: 8.80

stdin: # get_value(readout= pIC50, system= rat VAP-1 enzyme (SSAO) (Rattus norvegicus (Rat), UniProt O08590)) for N=C(N)NC(=O)OCc1cccc(N2CCN(c3cccnc3)C(=O)C2)c1F
stdout: 8.18

stdin: # get_value(readout= pIC50, system= rat VAP-1 enzyme (SSAO) (Rattus norvegicus (Rat), UniProt O08590)) for COC1CN(c2ncc(-c3cccc(COC(=O)NC(=N)N)c3F)cn2)C1
stdout: 8.96

stdin: # get_value(readout= pIC50, system= rat VAP-1 enzyme (SSAO) (Rattus norvegicus (Rat), UniProt O08590)) for CCC(=O)N1CCC(C2CN(c3cccc(COC(=O)NC(=N)N)c3F)C2)CC1
stdout: 8.85

* * *

Assay system human VAP-1 enzyme (SSAO) (Homo sapiens (Human)); read-out recorded as IC50.
Structures can show the parent of a compound that is named as a salt.
Please reply with the bare figure in nM and do not write the unit itself.

These solved cases illustrate the format of a correct answer.
{"compound": "N=C(N)NC(=O)OCc1cccc(N2CCN(C(=O)CC3CCOCC3)CC2)c1F", "assay-target": "human VAP-1 enzyme (SSAO) (Homo sapiens (Human))", "u": "nM", "experimental-result": 19}
{"compound": "COC1CN(c2ncc(N3CCN(c4cccc(COC(=O)NC(=N)N)c4F)CC3)cn2)C1 [Example 316, trihydrochloride]", "assay-target": "human VAP-1 enzyme (SSAO) (Homo sapiens (Human))", "u": "nM", "experimental-result": 11}

Now examine the next entry.
stdin: # get_value(readout= IC50, system= human VAP-1 enzyme (SSAO) (Homo sapiens (Human))) for Cc1cc(COC2CN(c3cccc(COC(=O)NC(=N)N)c3F)C2)cc(C)n1
stdout: 20
